experimental.target: Kir3.1/Kir3.4 (Homo sapiens, UniProt P48544+P48549)
Sequence (P48549 whole entry): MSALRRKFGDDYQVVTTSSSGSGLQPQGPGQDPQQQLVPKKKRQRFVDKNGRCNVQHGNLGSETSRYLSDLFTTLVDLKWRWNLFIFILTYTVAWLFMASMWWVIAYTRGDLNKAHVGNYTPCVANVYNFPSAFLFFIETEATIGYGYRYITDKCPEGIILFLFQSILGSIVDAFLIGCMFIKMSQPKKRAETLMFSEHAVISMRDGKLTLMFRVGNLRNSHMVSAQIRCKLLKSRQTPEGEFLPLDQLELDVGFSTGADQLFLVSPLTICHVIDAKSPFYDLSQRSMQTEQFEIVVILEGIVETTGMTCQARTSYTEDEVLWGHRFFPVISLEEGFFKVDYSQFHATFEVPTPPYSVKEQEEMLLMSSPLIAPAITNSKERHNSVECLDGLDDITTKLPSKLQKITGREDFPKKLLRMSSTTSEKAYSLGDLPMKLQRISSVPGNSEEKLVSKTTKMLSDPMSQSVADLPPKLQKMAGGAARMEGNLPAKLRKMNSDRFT
Sequence (P48544 whole entry): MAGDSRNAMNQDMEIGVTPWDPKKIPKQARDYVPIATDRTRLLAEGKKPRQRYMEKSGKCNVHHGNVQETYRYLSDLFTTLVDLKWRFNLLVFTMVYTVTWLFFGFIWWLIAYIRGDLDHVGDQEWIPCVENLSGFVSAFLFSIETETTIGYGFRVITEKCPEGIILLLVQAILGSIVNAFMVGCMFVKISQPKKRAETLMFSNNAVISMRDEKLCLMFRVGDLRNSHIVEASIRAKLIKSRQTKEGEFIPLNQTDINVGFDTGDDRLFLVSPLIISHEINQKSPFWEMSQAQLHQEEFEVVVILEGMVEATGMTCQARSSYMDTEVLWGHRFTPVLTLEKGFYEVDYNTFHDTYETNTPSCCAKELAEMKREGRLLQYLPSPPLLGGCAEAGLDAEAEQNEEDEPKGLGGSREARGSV
assay.procedure: Inhibition of GIRK1/4 (unknown origin)
pIC50: −log10 of the molar value.
Response key: T means pIC50 >= 6; F means pIC50 < 6.

>  <test.smiles>
O=C(Nc1ccc(F)c(Cl)c1)Nc1cc(CC2CC2)nn1-c1ccccc1

>  <discrete.label>
T

$$$$
>  <test.smiles>
O=C(Nc1cccc(C(F)(F)F)c1)Nc1cc(CC2CC2)nn1-c1ccccc1

>  <discrete.label>
T

$$$$
>  <test.smiles>
CSc1cccc(NC(=O)Nc2cc(C3CC3)nn2-c2ccccc2)c1

>  <discrete.label>
F

$$$$
>  <test.smiles>
O=C(Nc1cccc(Cl)c1)Nc1cc(C2CCC2)nn1-c1ccccc1

>  <discrete.label>
T

$$$$
>  <test.smiles>
O=C(Nc1ccc(F)cc1)Nc1cc(CC2CC2)nn1-c1ccccc1

>  <discrete.label>
T

$$$$
>  <test.smiles>
O=C(Nc1ccc(F)c(F)c1)Nc1cc(CC2CC2)nn1-c1ccccc1

>  <discrete.label>
T

$$$$
>  <test.smiles>
O=C(Nc1cccc(F)c1)Nc1cc(C2CC2)nn1-c1ccccc1

>  <discrete.label>
F

$$$$
>  <test.smiles>
Cc1cccc(NC(=O)Nc2cc(CC3CC3)nn2-c2ccccc2)c1

>  <discrete.label>
T

$$$$
>  <test.smiles>
O=C(Nc1ccc(F)c(F)c1)Nc1cc(C2CCCC2)nn1-c1ccccc1

>  <discrete.label>
F

$$$$
>  <test.smiles>
Cc1ccc(NC(=O)Nc2cc(C(C)C)nn2-c2ccccc2)cc1

>  <discrete.label>
F

$$$$
>  <test.smiles>
Cc1cccc(NC(=O)Nc2cc(C3CC3)nn2-c2ccccc2)c1

>  <discrete.label>
F

$$$$
>  <test.smiles>
O=C(Nc1cccc(F)c1)Nc1cc(CC2CC2)nn1-c1ccccc1

>  <discrete.label>
T

$$$$
>  <test.smiles>
O=C(Nc1ccc(F)c(Cl)c1)Nc1cc(C2CCC2)nn1-c1ccccc1

>  <discrete.label>
T

$$$$
>  <test.smiles>
O=C(Nc1cccc(Cl)c1)Nc1cc(CC2CC2)nn1-c1ccccc1

>  <discrete.label>
T

$$$$
